test system: Syncephalastrum racemosum; experiment: Antimicrobial activity against Syncephalastrum racemosum RCMB 016001 at 1 mg/ml by agar diffusion technique; format: functional; conditions: read-out: DIZ
Collected zone of inhibition at 1000 µg/mL values appear next to each entry.
MEASURE: zone of inhibition at 1000 µg/mL

>>> recorded_value("Nn1c(SCCCCSc2nnc(-c3cccnc3)n2N)nnc1-c1cccnc1")
"1 mm"
>>> recorded_value("O=C(N[C@H](CO)[C@H](O)c1ccc([N+](=O)[O-])cc1)C(Cl)Cl [CHLORAMPHENICOL]")
"10 mm"
>>> recorded_value("Nn1c(SCCCSc2nnc(-c3cccnc3)n2N)nnc1-c1cccnc1")
"0 mm"
>>> recorded_value("Nn1c(SCCSc2nnc(-c3cccnc3)n2N)nnc1-c1cccnc1")
"0 mm"
>>> recorded_value("S=c1[nH]nc(-c2cccnc2)n1/N=C\\c1ccccc1OCCCOc1ccccc1/C=N\\n1c(-c2cccnc2)n[nH]c1=S")
"0 mm"
>>> recorded_value("C1=N\\n2c(nnc2-c2cccnc2)SCCCCSc2nnc(-c3cccnc3)n2/N=C\\c2ccccc2OCCCCOc2ccccc2/1")
"0 mm"
>>> recorded_value("CN(C/C=C/C#CC(C)(C)C)Cc1cccc2ccccc12 [TERBINAFINE]")
"10 mm"
>>> recorded_value("Nn1c(-c2cccnc2)n[nH]c1=S")
"0 mm"
>>> recorded_value("OC1COc2ccccc2/C=N\\n2c(nnc2-c2cccnc2)SCCCCSc2nnc(-c3cccnc3)n2/N=C\\c2ccccc2OC1")
"0 mm"
>>> recorded_value("S=c1[nH]nc(-c2cccnc2)n1/N=C\\c1ccccc1OCCCCOc1ccccc1/C=N\\n1c(-c2cccnc2)n[nH]c1=S")
"0 mm"
